Listing: viability, T/C of selected compounds
# Tested on: 958667-338-R-J2-PDC tumor spheroids viability
# protocol-summary: Anticancer human tumor 958667-338-R-J2-PDC patient-derived colon adenocarcinoma cell line growth inhibition [PI3K]
# condition-description: second compound 0.316 µM; first compound 10 µM; stronger effect = lower value; spheroids with HUVEC and MSC
measured-endpoint: viability, T/C (%)

• CC(Cn1ccc(-c2ccc(C#N)c(Cl)c2)n1)NC(=O)c1cc(C(C)O)[nH]n1 (centres undefined) + CC(Nc1ncnc2nc[nH]c12)c1cc2cccc(Cl)c2c(=O)n1-c1ccccc1 = 109
• CC1(C)CCC(CN2CCN(c3ccc(C(=O)NS(=O)(=O)c4ccc(NCC5CCOCC5)c([N+](=O)[O-])c4)c(Oc4cnc5[nH]ccc5c4)c3)CC2)=C(c2ccc(Cl)cc2)C1 + Cc1nc(NC(=O)N2CCCC2C(N)=O)sc1-c1ccnc(C(C)(C)C(F)(F)F)c1 = 25.7
• C[C@@H](NC(=O)c1ncnc(N)c1Cl)c1ncc(C(=O)Nc2cc(C(F)(F)F)c(Cl)cn2)s1 + CC(Nc1ncnc2nc[nH]c12)c1cc2cccc(Cl)c2c(=O)n1-c1ccccc1 = 94.3
• C#Cc1c(F)ccc2cc(O)cc(-c3ncc4c(N5CC6CCC(C5)N6)nc(OCC56CCCN5CC(F)C6)nc4c3F)c12 (centres undefined) + CC(Nc1ncnc2nc[nH]c12)c1cc2cccc(Cl)c2c(=O)n1-c1ccccc1 = 63.5

----------
# System: 958667-338-R-J2-PDC tumor spheroids viability
# protocol-summary: Anticancer human tumor 958667-338-R-J2-PDC cell line growth inhibition [PI3K];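 further: spheroids exposed to compounds for seven days before readout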
# condition-description: curve of first compound; second compound 0.1 µM; spheroids with HUVEC and MSC
measured-endpoint: IC50

- C#Cc1c(F)ccc2cc(O)cc(-c3ncc4c(N5CC6CCC(C5)N6)nc(OCC56CCCN5CC(F)C6)nc4c3F)c12 (stereo not drawn) + Cc1nc(NC(=O)N2CCCC2C(N)=O)sc1-c1ccnc(C(C)(C)C(F)(F)F)c1: > 10 µM
- C=CC(=O)N1CCN(c2nc(=O)n(-c3c(C)ccnc3C(C)C)c3nc(-c4c(O)cccc4F)c(F)cc23)C(C)C1 (stereo not drawn) + Cc1nc(NC(=O)N2CCCC2C(N)=O)sc1-c1ccnc(C(C)(C)C(F)(F)F)c1: > 10 µM
- Cn1cnc2c(F)c(Nc3ccc(Br)cc3Cl)c(C(=O)NOCCO)cc21 + CC(Nc1ncnc2nc[nH]c12)c1cc2cccc(Cl)c2c(=O)n1-c1ccccc1: 0.261 µM

----------
# Test system: 958667-338-R-J2-PDC tumor spheroids viability
# protocol-summary: Anticancer human tumor 958667-338-R-J2-PDC cell line growth inhibition [PI3K];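 further: spheroids exposed to compounds for seven days before readout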
# condition-description: second compound 1 µM; first compound 0.3 µM; stronger effect = lower value; spheroids with HUVEC and MSC
measured-endpoint: viability, T/C (%)

• Cn1cnc2c(F)c(Nc3ccc(Br)cc3Cl)c(C(=O)NOCCO)cc21 + CC(Nc1ccc2c(c1)OCCn1cc(N3C(=O)OCC3C(F)F)nc1-2)C(N)=O = 22.8
• Cn1cnc2c(F)c(Nc3ccc(Br)cc3Cl)c(C(=O)NOCCO)cc21 + CC(Nc1ncnc2nc[nH]c12)c1cc2cccc(Cl)c2c(=O)n1-c1ccccc1 = 48.2
• Cn1cnc2c(F)c(Nc3ccc(Br)cc3Cl)c(C(=O)NOCCO)cc21 + Cc1nc(NC(=O)N2CCCC2C(N)=O)sc1-c1ccnc(C(C)(C)C(F)(F)F)c1 = 24
• Cn1cnc2c(F)c(Nc3ccc(Br)cc3Cl)c(C(=O)NOCCO)cc21 + COc1c(OCCCN2CCOCC2)ccc2c3n(c(=NC(=O)c4cnc(N)nc4)nc12)CCN3 = 3.51
